Data provenance is patent US10030012B2.

tested_on: human M4 receptor (Homo sapiens (Human), UniProt P08173)
Sequence (P08173 whole entry): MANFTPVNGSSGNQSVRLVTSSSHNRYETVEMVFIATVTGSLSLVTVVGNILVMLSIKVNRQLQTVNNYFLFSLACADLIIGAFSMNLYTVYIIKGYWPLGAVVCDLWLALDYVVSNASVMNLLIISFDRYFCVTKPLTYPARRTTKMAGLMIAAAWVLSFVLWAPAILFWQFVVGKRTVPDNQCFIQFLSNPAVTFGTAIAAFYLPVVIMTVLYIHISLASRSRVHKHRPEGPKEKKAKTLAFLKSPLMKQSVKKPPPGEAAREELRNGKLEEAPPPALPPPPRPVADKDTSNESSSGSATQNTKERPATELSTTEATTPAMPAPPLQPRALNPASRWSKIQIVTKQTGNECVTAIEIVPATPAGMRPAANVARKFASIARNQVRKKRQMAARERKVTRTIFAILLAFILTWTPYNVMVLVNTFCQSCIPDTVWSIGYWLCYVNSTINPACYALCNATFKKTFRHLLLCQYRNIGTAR
assay_info: In vitro M4 functional assay (intracellular calcium, FLiPR Tetra)
assay_context: CHOK1 cells stably expressing human M4 receptor and Gα16; calcium flux
Binarize EC50 at 500 nM; below is true, at or above is false.

| molecule | assigned_class |
| --- | --- |
| CCOC(=O)N1CCC(CN2CCC(n3nc(C)cc3C)C2)CC1 (stereo not drawn) | true |
| CCOC(=O)N1CCCC(N2CCC(c3cccnc3OC(C)C)CC2)CC1 (stereo not drawn) | true |
| CCOC(=O)N1CCC(N2CCC(c3cccnc3OC)CC2)CC1 | true |
| CCOC(=O)N1CCC(N2CCC(c3cccnc3C)CC2)CC1 | false |
| CCOC(=O)N1CCCC(N2CCC(c3cc(-c4cccs4)n[nH]3)CC2)CC1 (stereo not drawn) | false |
| CCOC(=O)N1CCCC(N2CCC(c3cc(C(F)(F)F)cnc3OC)CC2)CC1 (stereo not drawn) | true |
| COC(=O)N1CCC(CN2CCC(n3nc(C)cc3C)C2)CC1 (stereo not drawn) | false |
| CCOC(=O)N1CCCC(N2CCC(c3cccnc3-c3ccnn3C)CC2)CC1 (stereo not drawn) | false |
| CCOC(=O)N1CCCC(N2CCC(c3nc(C)cnc3C)CC2)CC1 (stereo not drawn) | false |

====

tested_on: human M4 receptor (Homo sapiens (Human), UniProt P08173)
assay_info: In vitro M4 functional assay (intracellular calcium, FLiPR Tetra)
Type: cell-based
assay_context: relative efficacy to an EC100 concentration of acetylcholine; read-out: M4 % RE

| compound | Emax, % |
| --- | --- |
| COC(=O)N1CCC(CN2CCC(n3nc(C)cc3C)C2)CC1 (stereo not drawn) | 36 |
| CCOC(=O)N1CCC(N2CCC(c3cccc(OC)n3)CC2)CC1 | 73 |
| CCOC(=O)N1CCCC(N2CCC(n3nccc3C)CC2)CC1 (stereo not drawn) | 82 |
| CCOC(=O)N1CCCC(N2CCC(c3ccncc3)CC2)CC1 (stereo not drawn) | 27 |
| CCOC(=O)N1CCCC(N2CCC(c3nccn3CC(=O)NC3CC3)CC2)CC1 (stereo not drawn) | 64 |
| CCOC(=O)N1CCCC(N2CCC(c3cccc(OC)n3)CC2)CC1 (stereo not drawn) | 61 |
| CCOC(=O)N1CCCC(N2CCC(c3cncc(OC)c3)CC2)CC1 (stereo not drawn) | 25 |
| CCOC(=O)N1CCCC(N2CCC(c3cccnc3NC)CC2)CC1 (stereo not drawn) | 53 |
| CCOC(=O)N1CCCC(N2CCC(c3cccnc3-c3ncco3)CC2)CC1 (stereo not drawn) | 43 |

====

tested_on: human M4 receptor (Homo sapiens (Human))
assay_info: In vitro M4 functional assay (intracellular calcium, FLiPR Tetra)
Type: cell-based
assay_context: relative efficacy to an EC100 concentration of acetylcholine; read-out: M4 % RE
Experimental: In Vitro M4 &M2 Functional Assay The functional activity of compounds at the M4 and M2 receptors was determined by measuring changes in the level of intracellular calcium ions caused by signalling cascades mediated by the receptor. Intracellular Calcium levels were measured using a calcium sensitive fluorescent dye, calcium 5 (Molecular Devices) The changes in fluorescence were monitored by a fluorescent imager, FLiPR Tetra (Molecular devices). […]

| compound | Emax (%) |
| --- | --- |
| CCOC(=O)N1CCCC(N2CCC(c3cccnc3NCC3CC3)CC2)CC1 (stereo not drawn) | 37 |
| CCOC(=O)N1CCC(CN2CC(n3cccn3)C2)CC1 | 29 |
| CCOC(=O)N1CCC[C@@H](N2CCC(n3cccn3)CC2)CC1 | 80 |
| CCOC(=O)N1CCCC(N2CCC(c3cccnc3N(C)C)CC2)CC1 (stereo not drawn) | 87 |
| CCOC(=O)N1CCCC(N2CCC(n3nccc3-c3sc(C)nc3C)CC2)CC1 (stereo not drawn) | 46 |
| CCOC(=O)N1CCC[C@H](N2CCC(c3cccnc3OC)CC2)CC1 | 91 |
| CCOC(=O)N1CCCC(N2CCC(c3cccnc3CC)CC2)CC1 (stereo not drawn) | 64 |
| CCOC(=O)N1CCC(N2CCC(c3nccs3)CC2)CC1 | 45 |
| CCOC(=O)N1CCCC(N2CCC(c3cc(C(F)(F)F)cnc3OC)CC2)CC1 (stereo not drawn) | 94 |

====

tested_on: human M4 receptor (Homo sapiens (Human))
assay_info: In vitro M4 functional assay (intracellular calcium, FLiPR Tetra)
assay_context: CHOK1 cells stably expressing human M4 receptor and Gα16; calcium flux
# EC50 per record follows

| compound | EC50 (nM) |
| --- | --- |
| CCOC(=O)N1CCCC(N2CCC(n3nccc3C(=O)N(C)C)CC2)CC1 (stereo not drawn) | 2680 |
| CCOC(=O)N1CCCC(N2CCC(c3nccn3CC(=O)NC3CCCCC3)CC2)CC1 (stereo not drawn) | 1870 |
| CCOC(=O)N1CCCC(N2CCC(c3nccn3CC)CC2)CC1 (stereo not drawn) | 1740 |
| CCOC(=O)N1CCCC(N2CCC(n3cc(-c4ccc(F)cc4)cn3)CC2)CC1 (stereo not drawn) | 410 |
| CCOC(=O)N1CCCC(N2CCC(n3nccc3-c3ccnn3C)CC2)CC1 (stereo not drawn) | 260 |
| CCOC(=O)N1CCCC(N2CCC(c3cccnc3-c3cnn(C)c3)CC2)CC1 (stereo not drawn) | 650 |
| CCOC(=O)N1CCCC(N2CCC(c3cccnc3CC(C)C)CC2)CC1 (stereo not drawn) | 670 |
| CCOC(=O)N1CCCC(N2CCC(c3ccncc3)CC2)CC1 (stereo not drawn) | 1660 |
| CCOC(=O)N1CCCC(N2CCC(c3cnccc3OC)CC2)CC1 (stereo not drawn) | 250 |

====

tested_on: human M4 receptor (Homo sapiens (Human), UniProt P08173)
assay_info: In vitro M4 functional assay (intracellular calcium, FLiPR Tetra)
Assay type: cell-based
assay_context: relative efficacy to an EC100 concentration of acetylcholine; read-out: M4 % RE

| molecule | Emax (%) |
| --- | --- |
| CCOC(=O)N1CCCC(N2CCC(c3nc(C)ncc3OC)CC2)CC1 (stereo not drawn) [Example 63] | 43 |
| CCOC(=O)N1CCCC(N2CCC(c3nnccc3OC)CC2)CC1 (stereo not drawn) [Example 71] | 45 |
| CCOC(=O)N1CCC(N2CCC(c3nccn3C)CC2)CC1 [Example 1] | 49 |
| CCOC(=O)N1CCCC(N2CCC(n3nccc3CNC(C)=O)CC2)CC1 (stereo not drawn) [Example 28] | 59 |
| CCOC(=O)N1CCCC(N2CCC(n3nccc3C3CC3)CC2)CC1 (stereo not drawn) [Example 20] | 77 |
| CCOC(=O)N1CCCC(N2CCC(n3nccc3-c3ccc(Cl)cc3)CC2)CC1 (stereo not drawn) [Example 5] | 49 |
| CCOC(=O)N1CCCC(N2CCC(c3cccnc3OC)CC2)CC1 (stereo not drawn) [Example 35] | 102 |
| CCOC(=O)N1CCCC(N2CCC(c3cncnc3C)CC2)CC1 (stereo not drawn) [Example 75] | 52 |
| CCOC(=O)N1CCCC(N2CCC(n3nccc3C(=O)NCC3CC3)CC2)CC1 (stereo not drawn) [Example 24] | 45 |

====

tested_on: human M4 receptor (Homo sapiens (Human), UniProt P08173)
assay_info: In vitro M4 functional assay (intracellular calcium, FLiPR Tetra)
assay_context: CHOK1 cells stably expressing human M4 receptor and Gα16; calcium flux
Class boundaries, taken from values of EC50, are as follows: group A: < 200 nM; group B: ≥ 200 nM and < 800 nM; group C: ≥ 800 nM

| compound | assigned_class |
| --- | --- |
| CCOC(=O)N1CCCC(N2CCC(c3cc(Cl)cnc3OC)CC2)CC1 (stereo not drawn) | group A |
| CCOC(=O)N1CCC[C@H](N2CCC(c3cccnc3OC)CC2)CC1 | group A |
| CCOC(=O)N1CCCC(N2CCC(c3nccn3CC(=O)NC3CC3)CC2)CC1 (stereo not drawn) | group C |
| CCOC(=O)N1CCCC(N2CCC(c3cccnc3OCc3cc(C)no3)CC2)CC1 (stereo not drawn) | group A |
| CCOC(=O)N1CCCC(N2CCC(n3nccc3C)CC2)CC1 (stereo not drawn) | group B |
| CCOC(=O)N1CCCC(N2CCC(c3nc(C)ncc3OC)CC2)CC1 (stereo not drawn) | group B |
| CCOC(=O)N1CCCC(N2CCC(c3cncc(OC)c3)CC2)CC1 (stereo not drawn) | group B |
| CCOC(=O)N1CCCC(N2CCC(c3nnccc3OC)CC2)CC1 (stereo not drawn) | group C |
| CCOC(=O)N1CCCC(N2CCC(n3ccc(C)n3)CC2)CC1 (stereo not drawn) | group B |
| CCOC(=O)N1CCCC(N2CCC(c3nccnc3N(C)C)CC2)CC1 (stereo not drawn) | group B |
| CCOC(=O)N1CCCC(N2CCC(n3cccc3)CC2)CC1 (stereo not drawn) | group B |
| CCOC(=O)N1CCCC(N2CCC(c3cccnc3-c3cnn(C(C)C)c3)CC2)CC1 (stereo not drawn) | group A |
| CCOC(=O)N1CCCC(N2CCC(c3cncnc3C)CC2)CC1 (stereo not drawn) | group C |
| CCOC(=O)N1CCCC(N2CCC(c3cccnc3OC)CC2)CC1 (stereo not drawn) | group A |
| CCOC(=O)N1CCCC(N2CCC(c3ccnn3C)CC2)CC1 (stereo not drawn) | group B |
| CCOC(=O)N1CCCC(N2CCC(c3cccn(CC)c3=O)CC2)CC1 (stereo not drawn) | group C |
| CCOC(=O)N1CCCC(N2CCC(n3nccc3C(F)(F)F)CC2)CC1 (stereo not drawn) | group B |
| CCOC(=O)N1CCC(N2CCC(c3ccncc3)CC2)CC1 | group C |
| CCOC(=O)N1CCCC(N2CCC(OC)(c3nccn3C)CC2)CC1 (stereo not drawn) | group C |
| CCOC(=O)N1CCC[C@H](N2CCC(n3cccn3)CC2)CC1 | group A |
| CCOC(=O)N1CCCC(N2CCC(n3nccc3COC)CC2)CC1 (stereo not drawn) | group B |
| CCOC(=O)N1CCCC(N2CCC(n3nccc3C3CC3)CC2)CC1 (stereo not drawn) | group A |
| CCOC(=O)N1CCC(N2CCC(c3ccnc(C)n3)CC2)CC1 | group C |
| CCOC(=O)N1CCCC(N2CCC(c3cccnc3NC)CC2)CC1 (stereo not drawn) | group B |
| CCOC(=O)N1CCCC(N2CCC(n3nccc3-c3sc(C)nc3C)CC2)CC1 (stereo not drawn) | group B |
| CCOC(=O)N1CCCC(N2CCC(c3cc(C)cnc3OCC)CC2)CC1 (stereo not drawn) | group A |
| CCOC(=O)N1CCC(N2CCC(c3cccc(OCC)n3)CC2)CC1 | group B |
| CCOC(=O)N1CCC(CN2CC(n3cccn3)C2)CC1 | group C |
| CCOC(=O)N1CCCC(N2CCC(c3cccnc3-c3ncco3)CC2)CC1 (stereo not drawn) | group C |
| CCOC(=O)N1CCC[C@@H](N2CCC(c3cccnc3OC)CC2)CC1 | group B |
| CCOC(=O)N1CCCC(N2CCC(c3ncccc3OC)CC2)CC1 (stereo not drawn) | group A |
| CCOC(=O)N1CCCC(N2CCC(c3cccn(CC#N)c3=O)CC2)CC1 (stereo not drawn) | group C |
| CCCn1ccnc1C1CCN(C2CCCN(C(=O)OCC)CC2)CC1 (stereo not drawn) | group C |
| CCOC(=O)N1CCC(N2CCC(c3cccc(OC)n3)CC2)CC1 | group B |
| CCOC(=O)N1CCCC(N2CCC(c3nccs3)CC2)CC1 (stereo not drawn) | group A |
| CCOC(=O)N1CCC(N2CCC(c3nccs3)CC2)CC1 | group B |
| CCOC(=O)N1CCCC(N2CCC(c3cccnc3CC)CC2)CC1 (stereo not drawn) | group B |
| CCOC(=O)N1CCCC(N2CCC(c3nccnc3OC)CC2)CC1 (stereo not drawn) | group A |
| CCOC(=O)N1CCCC(N2CCC(c3nccn3C)CC2)CC1 (stereo not drawn) | group C |
